- TEST NAME: ATG_BRE_CIS: Attagene CIS-FACTORIAL HepG2 Assay for human Bone Morphogenetic Protein (BMP) Response Element (BRE) (AID 2282933)
- CONDITIONS: HepG2 BMP response element reporter, Attagene transcription factor profiling; actives raise or lower the signal
Calls of active or inactive are those of the source. How the source made its calls: active means hit-call score of the fitted dose curve at least 0.9, where 1 is the maximum; inactive means score below 0.9.
QUANTITY NAME: outcome

CC(=O)Nc1ccc(S(N)(=O)=O)cc1 :: inactive
CCCCCCOC(=O)c1ccc(O)cc1 :: inactive
CCCCCCCCCCCC[N+](C)(C)Cc1ccccc1 :: inactive

====

- TARGET: Retinoic acid receptor alpha (Homo sapiens) (UniProt P10276)
- Sequence (P10276 whole entry, looked up): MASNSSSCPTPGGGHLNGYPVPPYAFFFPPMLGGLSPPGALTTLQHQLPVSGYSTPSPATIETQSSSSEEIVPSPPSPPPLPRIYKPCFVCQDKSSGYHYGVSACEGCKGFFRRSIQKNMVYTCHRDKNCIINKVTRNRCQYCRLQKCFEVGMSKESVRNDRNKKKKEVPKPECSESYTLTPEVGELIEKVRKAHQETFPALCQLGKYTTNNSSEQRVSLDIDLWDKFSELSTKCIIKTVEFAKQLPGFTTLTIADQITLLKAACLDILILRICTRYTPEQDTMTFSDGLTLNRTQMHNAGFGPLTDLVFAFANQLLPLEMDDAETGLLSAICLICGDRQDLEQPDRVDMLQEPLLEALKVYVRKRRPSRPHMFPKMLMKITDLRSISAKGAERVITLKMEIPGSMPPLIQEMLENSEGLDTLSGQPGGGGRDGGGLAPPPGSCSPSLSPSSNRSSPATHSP
- TEST NAME: ATG_DR5_RAR_CIS: Attagene CIS-FACTORIAL HepG2 Assay for human Retinoic Acid Receptor Alpha (RARE), DR5 submotif (AID 2282934)
- CONDITIONS: HepG2 Attagene cis-factorial RARE DR5 reporter, mRNA; actives raise or lower the signal
Calls of active or inactive are those of the source. How the source made its calls: active means hit-call score of the fitted dose curve at least 0.9, where 1 is the maximum; inactive means score below 0.9.
QUANTITY NAME: outcome

Solved entries (count: 5):
COc1cc([N+](=O)[O-])ccc1N :: inactive
COC(=O)CC(C(C)=O)C(=O)OC (centres undefined) :: inactive
O=C1c2ccc(O)c(O)c2C(=O)c2c(O)ccc(O)c21 :: inactive
CC1CCC(C(=O)O)CC1 (centres undefined) :: inactive
CN(CCO)S(=O)(=O)C(F)(F)C(F)(F)C(F)(F)C(F)(F)C(F)(F)C(F)(F)C(F)(F)C(F)(F)F :: inactive

Quick one: outcome of "O=C(O)c1cccc(C(=O)O)n1" ? inactive

Please look up its outcome: "NC(C(F)(F)F)C(F)(F)F" inactive

Quick check: outcome of CCCCCCCCC1CCC(=O)O1 (centres undefined) ? inactive

Any idea what outcome was measured for "O=S(=O)(O)c1ccccc1" ? inactive

Form field: reported outcome of "FC(F)(F)C(F)(F)C(F)(F)C(F)(F)I" inactive

Name the reported outcome value associated with the compound "CCCCCCCCCCCC[N+](C)(C)CCCCCCCCCCCC" inactive

Can you look up the measured outcome of "O=C(F)C(F)(F)C(F)(F)C(F)(F)C(F)F" for me? inactive

So what's the measured outcome for this one? "CCCC=O" inactive

Item "O=C(NCc1ncc(C(F)(F)F)cc1Cl)c1c(Cl)cccc1Cl" has what recorded outcome? inactive

outcome for "N=C(N)c1ccc(OCCCCCOc2ccc(C(=N)N)cc2)cc1" ? inactive

Give its outcome value. Item: "O=C1c2ccccc2C(=O)c2c(O)c(O)cc(O)c21" inactive

Quick check: outcome of "O=C1Cc2ccccc2N1c1c(Cl)cccc1Cl" ? inactive

So what does the record say about outcome for "O=C(O)CN(CCCN(CC(=O)O)CC(=O)O)CC(=O)O" ? inactive

// outcome lookup, key: "CC(C)(O)C(=O)c1ccccc1" inactive

====

- TEST NAME: ATG_PXRE_CIS: Attagene CIS-FACTORIAL HepG2 Assay for human Pregnane X Receptor Element (PXRE) (AID 2282957)
- CONDITIONS: HepG2 Attagene CIS-FACTORIAL PXRE reporter, mRNA; actives raise or lower the signal
Active and inactive are the calls of the source. The calls were made as follows: active = hit-call score of the fitted dose curve at least 0.9, where 1 is the maximum; inactive = score below 0.9.
Write down one outcome, taken from active, inactive

CCCCCCCCCCCC[N+](C)(C)CCCCCCCCCCCC :: inactive

What classification did "CCCCCCCCCCCC(=O)O" end up with in this test? inactive
